- System: RAW-Dual
- ASSAY TEXT: IRF Lucia reporter activity, fold change vs agonist alone; higher = enhanced IRF activity
- CONDITION CONTEXT: library stock concentration (final ~1000-fold dilution): 10 mM; cytotoxicity flag (confluency mask): not cytotoxic; agonist: MPLA (TLR4) […]
Over roughly 2,900 compounds, “IRF Lucia reporter activity, fold change vs agonist alone” has its median near 0.9; the highest 2% begin near 2.8. For the sample, the highest values were picked, then their nearest neighbours and some compounds at random.
ENDPOINT NAME: IRF Lucia reporter activity

{"columns": ["COMPOUND", "ENDPOINT NAME", "RECORDED MEASUREMENT"],
 "data": [
  ["CC(Nc1ncnc(N)c1C#N)c1cc2cccc(-c3ccc(=O)n(C)c3)c2c(=O)n1C(C)C (stereo not given)", "IRF Lucia reporter activity", 7.07]
]}

Then this compound:
# input Entry CC(Nc1ncnc2[nH]cnc12)c1cc2cccc(Cl)c2c(=O)n1-c1ccccc1 (stereo not given) : reported IRF Lucia reporter activity = ?
# output 1.42

* * *

Form field: IRF Lucia reporter activity (one value per entry).
- Tested on: RAW-Dual
- ASSAY TEXT: IRF Lucia reporter activity, fold change vs agonist alone; higher = enhanced IRF activity
- CONDITION CONTEXT: library stock concentration (final ~1000-fold dilution): 10 mM; cytotoxicity flag (confluency mask): cytotoxic (confluency <70% of control); agonist: MPLA (TLR4) […]
Whole data set: some 2,900 compounds, median “IRF Lucia reporter activity, fold change vs agonist alone” near 0.9, cut for the highest 2% near 2.8. For the sample, the highest values were picked, then their nearest neighbours and some compounds at random.
The answer should be a number; do not append a unit.

{"columns": ["COMPOUND", "SYSTEM NAME", "IRF Lucia reporter activity"],
 "data": [
  ["Cc1cc(C)c(Nc2ccnc(Nc3ccc(C#N)cc3)n2)c(C)c1", "RAW-Dual", 1.7]
]}

# input Entry CC(C)(O)c1ccccc1CCC(SCC1(CC(=O)O)CC1)c1cccc(/C=C/c2ccc3ccc(Cl)cc3n2)c1 (centres undefined) : reported IRF Lucia reporter activity = ?
# output 0.73

# input Entry CS(=O)(=O)O.CS(=O)(=O)O.Cc1ccc(C(=O)Nc2ccc(CN3CCN(C)CC3)c(C(F)(F)F)c2)cc1C#Cc1cnc2[nH]ncc2c1 : reported IRF Lucia reporter activity = ?
# output 0.0201

# input Entry COc1cc2nccc(Oc3ccc(NC(=O)Nc4ccc(F)cc4F)c(F)c3)c2cc1OC : reported IRF Lucia reporter activity = ?
# output 1.23

* * *

- Tested on: RAW-Dual
- ASSAY TEXT: IRF Lucia reporter activity, fold change vs agonist alone; cytotoxicity flag (confluency mask): not cytotoxic; higher = enhanced IRF activity
- CONDITION CONTEXT: agonist: LPS (TLR4) 0.1 ug/mL
Over roughly 2,900 compounds, “IRF Lucia reporter activity, fold change vs agonist alone” has its median near 0.9; the highest 2% begin near 2.8. What follows is part of a selection rich in the highest values, with near analogues and random picks from the rest.
Form field: IRF Lucia reporter activity (one value per entry).
The answer should be a number; do not append a unit.

Consider the reported IRF Lucia reporter activity for these molecules:
{"columns": ["MOLECULE", "IRF Lucia reporter activity"],
 "data": [
  ["O=C(/C=C/c1ccc(O)c(O)c1)O[C@@H]1C[C@@](O)(C(=O)O)C[C@@H](O)[C@@H]1O (library stock concentration (final ~1000-fold dilution): 10 mM)", 1.23],
  ["CS(=O)(=O)O.Cc1c(O)cccc1C(=O)NC(CSc1ccccc1)C(O)CN1CC2CCCCC2CC1C(=O)NC(C)(C)C (stereo unspecified) (library stock concentration (final ~1000-fold dilution): 10 mM)", 3.62],
  ["C[N+](C)(C)NCCC(=O)O (library stock concentration (final ~1000-fold dilution): 10 mM water)", 0.979],
  ["O=C1CCC(N2Cc3c(OCc4ccc(CN5CCOCC5)cc4)cccc3C2=O)C(=O)N1 (stereo unspecified) (library stock concentration (final ~1000-fold dilution): 10 mM)", 1.02],
  ["NC1CCCN(c2c(/C=C3\\SC(=O)NC3=O)cccc2-c2ccccc2)C1 (stereo unspecified) (library stock concentration (final ~1000-fold dilution): 10 mM)", 1.16]
]}

# input Entry COc1cc(C=CC(=O)OCC[N+](C)(C)C)cc(OC)c1O (library stock concentration (final ~1000-fold dilution): 10 mM) : reported IRF Lucia reporter activity = ?
# output 1.04
